Values compiled from ChEMBL document CHEMBL1800075.

- ASSAY_SUMMARY: Lipophilicity, log D of the compound by HPLC method
- Assay type: physicochemical
ENDPOINT_NAME: logD

{"MOLECULE": "COc1ccc2c(c1)C(CC1CCOCC1)(c1ccc(Cl)cc1)n1ccnc1-2 (stereo unspecified)", "ENDPOINT_NAME": "logD", "RESULT_NUMBER": 3.2}

###

- ASSAY_SUMMARY: Unbound fraction in rat plasma by ultracentrifugation
- Format: ADME, cell-free
# fraction unbound values compiled below

{"COMPOUND": "O=C(CCC1(c2ccc(Cl)cc2)c2ccccc2-c2nccn21)N1C2CCCC1CC2 (mixture of isomers)", "fraction unbound": 0.006}
{"COMPOUND": "COc1cccc2c1C(CC1CCOCC1)(c1ccc(Cl)cc1)n1ccnc1-2 (stereo not drawn)", "fraction unbound": 0.008}
{"COMPOUND": "CCN(CC)C(=O)CCC1(c2ccc(Cl)cc2)c2ccccc2-c2nccn21 (single isomer, unassigned)", "fraction unbound": 0.022}
{"COMPOUND": "Brc1ccc(C2(Cc3ccccc3)c3ccccc3-c3nccn32)cc1 (stereo in doubt; 2)", "fraction unbound": 0.01}
{"COMPOUND": "Clc1ccc(C2(CC3CCOCC3)c3ccccc3-c3nccn32)cc1 (stereo not drawn)", "fraction unbound": 0.018}
{"COMPOUND": "CCN(C(=O)CCC1(c2ccc(Cl)cc2)c2ccccc2-c2nccn21)C(C)C (racemic)", "fraction unbound": 0.007}
{"COMPOUND": "CC(C)N(C(=O)CCC1(c2ccc(Cl)cc2)c2ccccc2-c2nccn21)C(C)C (racemic)", "fraction unbound": 0.008}
{"COMPOUND": "N#Cc1ccc(C2(CC3CCCC3)c3ccccc3-c3nccn32)cc1 (stereo not drawn)", "fraction unbound": 0.011}
{"COMPOUND": "COc1ccc2c(c1)C(CC1CCOCC1)(c1ccc(Cl)cc1)n1ccnc1-2 (stereo not drawn)", "fraction unbound": 0.016}
{"COMPOUND": "C[C@@H]1CC[C@H](C)N1C(=O)CCC1(c2ccc(Cl)cc2)c2ccccc2-c2nccn21 (mixture of isomers)", "fraction unbound": 0.006}
{"COMPOUND": "CC(C1CCN(C(=O)CCC2(c3ccc(Cl)cc3)c3ccccc3-c3nccn32)CC1)N1CCC(F)(F)C1 (mixture of isomers)", "fraction unbound": 0.029}
{"COMPOUND": "CC(C1CCN(C(=O)CCC2(c3ccc(Cl)cc3)c3ccccc3-c3nccn32)CC1)N1CCCC1 (mixture of isomers)", "fraction unbound": 0.081}
{"COMPOUND": "Brc1ccc(C2(CC3CCCC3)c3ccccc3-c3nccn32)cn1 (stereo not drawn)", "fraction unbound": 0.013}
